SYSTEM_TESTED: 5-hydroxytryptamine receptor 1B (Homo sapiens)
Sequence (P28222 whole entry): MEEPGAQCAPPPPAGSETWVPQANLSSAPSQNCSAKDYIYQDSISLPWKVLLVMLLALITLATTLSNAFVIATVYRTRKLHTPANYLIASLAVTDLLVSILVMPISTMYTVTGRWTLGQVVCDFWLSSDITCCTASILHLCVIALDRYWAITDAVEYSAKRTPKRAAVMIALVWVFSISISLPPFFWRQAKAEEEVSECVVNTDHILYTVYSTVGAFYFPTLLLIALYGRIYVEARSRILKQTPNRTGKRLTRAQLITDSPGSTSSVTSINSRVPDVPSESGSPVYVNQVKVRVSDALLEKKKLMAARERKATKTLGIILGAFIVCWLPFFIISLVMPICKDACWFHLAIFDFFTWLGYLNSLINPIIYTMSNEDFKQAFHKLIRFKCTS
TEST_METHOD_NOTES: Intrinsic activity at human recombinant 5HT1B receptor expressed in CHO cells by [35S]GTP-gamma-S binding assay relative to 5-hydroxytryptamine
Assay type: functional, cell-based
OBSERVATION_TYPE: Intrinsic activity

| STRUCTURE_AS_SMILES | Intrinsic activity |
| --- | --- |
| Cc1ccc2c(OCCN3CCN(Cc4ccc5c(c4F)N(C)C(=O)CO5)CC3)cccc2n1 | 0.4 |
| Cc1ccc2c(OCCN3CCN(Cc4cc(F)c5c(c4)N(C)C(=O)CO5)CC3)cccc2n1 | 0.7 |
| CCCN1C(=O)COc2ccc(CN3CCN(CCOc4cccc5nc(C)ccc45)CC3)cc21 | 0.4 |
| Cc1ccc2c(OCCN3CCN(Cc4ccc5c(c4)NC(=O)CO5)CC3)cccc2n1 | 0.6 |
| CCN1C(=O)COc2ccc(CN3CCN(CCOc4cccc5nc(C)ccc45)CC3)c(F)c21 | 0.5 |

(a) Cc1ccc2c(OCCN3CCC(Cc4ccc5c(c4)NC(=O)CO5)CC3)cccc2n1
(b) COc1ccc(NC(=O)c2ccc(-c3ccc(-c4noc(C)n4)cc3C)cc2)cc1N1CCN(C)CC1
Of the pair a and b , name the member with the lesser recorded Intrinsic activity. Identify your pick by its label.
b
